Measured pIC50, listed per entry.
tested on: 616215-338-R-J1-PDC complex spheroid viability; assay: Anticancer human tumor 616215-338-R-J1-PDC patient-derived colon adenocarcinoma cell line growth inhibition [POLQ]; conditions: curve of first compound; second compound 0.1 µM;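 further: spheroids exposed to compounds for one week before readout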
pIC50: −log10 of the molar value.

Below, each entry is followed by its recorded pIC50 result.
compound="COc1cc2cc(C(=O)CCC(=O)O)sc2cc1OC + COC1C(OC(N)=O)C(O)C(Oc2ccc3c(O)c(NC(=O)c4ccc(O)c(CC=C(C)C)c4)c(=O)oc3c2C)OC1(C)C" assay_metric=pIC50 experimental_value="< 5.00"
compound="C=CC(=O)N1CCN(c2nc(=O)n(-c3c(C)ccnc3C(C)C)c3nc(-c4c(O)cccc4F)c(F)cc23)C(C)C1 (stereo unspecified) + Cc1cccc(N(C)C(=O)C2C(O)CCN2c2nc(C)cc(C(F)(F)F)c2C#N)c1" assay_metric=pIC50 experimental_value="< 5.00"
compound="CNCc1ccc(-c2[nH]c3cc(F)cc4c3c2CCNC4=O)cc1 + Cc1cccc(N(C)C(=O)C2C(O)CCN2c2nc(C)cc(C(F)(F)F)c2C#N)c1" assay_metric=pIC50 experimental_value="< 5.00"
compound="O=C(Nc1ccc(O)c(NS(=O)(=O)c2ccc(F)cc2)c1)c1ccc(-c2ccccc2)cc1 + COC1C(OC(N)=O)C(O)C(Oc2ccc3c(O)c(NC(=O)c4ccc(O)c(CC=C(C)C)c4)c(=O)oc3c2C)OC1(C)C" assay_metric=pIC50 experimental_value="< 5.00"
compound="C#Cc1c(F)ccc2cc(O)cc(-c3ncc4c(N5CC6CCC(C5)N6)nc(OCC56CCCN5CC(F)C6)nc4c3F)c12 (stereo unspecified) + Cc1cccc(N(C)C(=O)C2C(O)CCN2c2nc(C)cc(C(F)(F)F)c2C#N)c1" assay_metric=pIC50 experimental_value="< 5.00"

Data request: Find the recorded pIC50 belonging to O=C(Nc1ccc(O)c(NS(=O)(=O)c2ccc(F)cc2)c1)c1ccc(-c2ccccc2)cc1 + Cc1cccc(N(C)C(=O)C2C(O)CCN2c2nc(C)cc(C(F)(F)F)c2C#N)c1 and report it.
Data returned: < 5.00

Data request: Find the recorded pIC50 belonging to COc1ccc([C@@H](O)c2cc(-c3ncnc4cc(N5CCOCC5)ccc34)c(F)cc2Cl)nn1 + Cc1cccc(N(C)C(=O)C2C(O)CCN2c2nc(C)cc(C(F)(F)F)c2C#N)c1 and report it.
Data returned: < 5.00

Data request: Find the recorded pIC50 belonging to CCc1cc2c(N3CCc4c(cc(Cn5ccnc5)cc4-c4cn(C)nc4C(F)(F)F)C3=O)ccnc2c(OC)n1 + Cc1cccc(N(C)C(=O)C2C(O)CCN2c2nc(C)cc(C(F)(F)F)c2C#N)c1 and report it.
Data returned: 5.20

Data request: Find the recorded pIC50 belonging to CC1COCCN1c1cc(C2(O)CC3CCC(C2)O3)c2cnn(-c3ccn[nH]3)c2n1 (stereo unspecified) + Cc1cccc(N(C)C(=O)C2C(O)CCN2c2nc(C)cc(C(F)(F)F)c2C#N)c1 and report it.
Data returned: 5.53

Data request: Find the recorded pIC50 belonging to CCCS(=O)(=O)Nc1ccc(F)c(C(=O)c2c[nH]c3ncc(-c4ccc(Cl)cc4)cc23)c1F + Cc1cccc(N(C)C(=O)C2C(O)CCN2c2nc(C)cc(C(F)(F)F)c2C#N)c1 and report it.
Data returned: 5.24

Data request: Find the recorded pIC50 belonging to COc1cccc2c1C(=O)c1c(O)c3c(c(O)c1C2=O)CC(O)(C(=O)CO)CC3OC1CC(N)C(O)C(C)O1 (stereo unspecified) + Cc1cccc(N(C)C(=O)C2C(O)CCN2c2nc(C)cc(C(F)(F)F)c2C#N)c1 and report it.
Data returned: 6.00
